# assay explanation: Solubility in water
# Assay type: physicochemical
# assay conditions: buffer

compound	solubility
CCN1CCCC(Oc2ccc3[nH]c(=O)c4c(c3c2)CCSC4)C1 (stereo not given)	Soluble
CC(C)CCN1CCC(Oc2ccc3[nH]c(=O)c4c(c3c2)CCSC4)CC1	Soluble
O=c1[nH]c2ccc(OC3CCCNC3)cc2c2c1CSCC2 (stereo not given)	Soluble
O=c1[nH]c2ccc(OC3CCN(Cc4ccccc4)CC3)cc2c2c1CSCC2	Soluble
O=c1[nH]c2ccc(OC3CCN(CCO)CC3)cc2c2c1CSCC2	Soluble

====

# assay explanation: Drug level in rat brain at 10 mg/kg, iv after 0.75 hrs by LC/MS/MS analysis
# Type: ADME, organism-based
# Design: dose 10 mg/kg, route intravenous
# assay conditions: read-out: Drug uptake
measurement label: concentration at 0.75 h (ng/g)

entry smiles	result
CCCN1CCC(Oc2ccc3[nH]c(=O)c4c(c3c2)CCSC4)CC1	391

====

# measured on: Poly [ADP-ribose] polymerase 1 (Homo sapiens, UniProt P09874)
# Sequence (P09874 whole entry): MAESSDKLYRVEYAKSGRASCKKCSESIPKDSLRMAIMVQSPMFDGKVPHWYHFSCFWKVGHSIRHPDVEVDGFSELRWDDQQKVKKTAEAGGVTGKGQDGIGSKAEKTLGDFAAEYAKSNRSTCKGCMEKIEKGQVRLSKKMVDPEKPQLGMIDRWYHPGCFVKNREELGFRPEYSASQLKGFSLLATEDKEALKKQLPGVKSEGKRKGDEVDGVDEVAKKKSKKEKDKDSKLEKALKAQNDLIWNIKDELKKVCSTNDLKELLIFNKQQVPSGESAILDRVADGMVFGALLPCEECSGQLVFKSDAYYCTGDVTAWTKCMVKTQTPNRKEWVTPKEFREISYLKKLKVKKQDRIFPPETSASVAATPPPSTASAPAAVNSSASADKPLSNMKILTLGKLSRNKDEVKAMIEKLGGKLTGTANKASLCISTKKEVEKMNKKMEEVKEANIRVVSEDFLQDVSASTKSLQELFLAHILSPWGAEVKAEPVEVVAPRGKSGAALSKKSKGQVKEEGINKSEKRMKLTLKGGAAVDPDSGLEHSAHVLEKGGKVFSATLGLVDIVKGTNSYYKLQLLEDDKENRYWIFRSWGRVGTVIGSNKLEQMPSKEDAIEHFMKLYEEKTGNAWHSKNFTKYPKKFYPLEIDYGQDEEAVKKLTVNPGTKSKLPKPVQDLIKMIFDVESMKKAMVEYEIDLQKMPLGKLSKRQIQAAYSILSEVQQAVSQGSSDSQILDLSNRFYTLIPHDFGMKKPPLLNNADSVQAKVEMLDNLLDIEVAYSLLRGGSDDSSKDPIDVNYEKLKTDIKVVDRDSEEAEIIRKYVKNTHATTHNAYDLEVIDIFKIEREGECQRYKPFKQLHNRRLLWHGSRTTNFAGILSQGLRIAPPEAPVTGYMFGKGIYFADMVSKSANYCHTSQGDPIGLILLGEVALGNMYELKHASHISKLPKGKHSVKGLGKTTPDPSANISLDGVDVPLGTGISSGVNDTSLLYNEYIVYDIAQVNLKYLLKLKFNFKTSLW
# assay conditions: CHO-K1
# Description: Inhibition of PARP1 expressed in CHO-K1 cells

molecule	value qualifier	ED50 (nM)
CCCCCN1CCC(Oc2ccc3[nH]c(=O)c4c(c3c2)CCSC4)CC1	=	580
COCCN1CCC(Oc2ccc3[nH]c(=O)c4c(c3c2)CCSC4)CC1	=	1260
CC(C)CCN1CCC(Oc2ccc3[nH]c(=O)c4c(c3c2)CCSC4)CC1	=	740
O=c1[nH]c2ccc(OC3CCCNC3)cc2c2c1CSCC2 (configuration not stated)	=	890
O=c1[nH]c2ccc(OC3CCN(CCO)CC3)cc2c2c1CSCC2	=	1600
CCCN1CCCC(Oc2ccc3[nH]c(=O)c4c(c3c2)CCSC4)C1 (configuration not stated)	=	740
CCN1CCCC(Oc2ccc3[nH]c(=O)c4c(c3c2)CCSC4)C1 (configuration not stated)	=	280
O=c1[nH]c2ccc(OC3CCN(Cc4ccccc4)CC3)cc2c2c1CSCC2	=	800
CCCN1CCC(Oc2ccc3[nH]c(=O)c4c(c3c2)CCSC4)CC1	=	220
O=S(=O)(NCCCN1CCOCC1)c1ccc2c(c1)Cc1c-2nc(O)c2ccccc12	=	1000
CCN1CCC(Oc2ccc3[nH]c(=O)c4c(c3c2)CCSC4)C1 (configuration not stated)	=	350
CN1CCCC(Oc2ccc3[nH]c(=O)c4c(c3c2)CCSC4)C1 (configuration not stated)	=	580
O=c1[nH]c2ccc(OC3CCN(CCN4CCCCC4)CC3)cc2c2c1CSCC2	>	30000
O=c1[nH]c2ccc(OC3CCN(c4ccccc4)CC3)cc2c2c1CSCC2	=	1860
CN(C)c1ccc(CCN2CCC(Oc3ccc4[nH]c(=O)c5c(c4c3)CCSC5)CC2)cc1	=	9440
CN1CCC(Oc2ccc3[nH]c(=O)c4c(c3c2)CCSC4)C1 (configuration not stated)	=	730
O=c1[nH]c2ccc(OC3CCN(CCc4ccccc4)CC3)cc2c2c1CSCC2	=	360

====

# assay explanation: Drug level in rat plasma at 10 mg/kg, iv after 4 hrs by LC/MS/MS analysis
# Format: ADME, organism-based
# Set-up: dose 10 mg/kg, route intravenous

entry smiles	concentration at 4 h / ng/mL
CCCN1CCC(Oc2ccc3[nH]c(=O)c4c(c3c2)CCSC4)CC1	18

====

# assay explanation: Ratio of drug level in brain to plasma in rat at 10 mg/kg, iv after 4 hrs by LC/MS/MS analysis
# Assay type: ADME, organism-based
# Parameters: dose 10 mg/kg, route intravenous

entry smiles	Kp at 4 h
CCCN1CCC(Oc2ccc3[nH]c(=O)c4c(c3c2)CCSC4)CC1	0.72

Each recorded value in this set is attributed to ChEMBL document CHEMBL1156288.
